Values from ChEMBL document CHEMBL3885861

organism: Rattus norvegicus; test: Open TG-GATES - Regimen: Single; type: toxicity, organism-based, Sprague-Dawley; design: regimen Single, gender Male, age 6 weeks; conditions: in vivo, po, 30 mg/kg, 24 h, tissue Plasma, route gavage, dose level Middle
measured.endpoint: GLC (mg/dL)
Give your result in mg/dL as a bare value.

Consider the worked cases shown below.
- CC1=C(/C=C/C(C)=C/C=C/C(C)=C/CO)C(C)(C)CCC1 [RETINOL]: 193
- CN(C)CCCN1c2ccccc2CCc2ccccc21 [IMIPRAMINE]: 177
- CN(C)CCCN1c2ccccc2CCc2ccc(Cl)cc21 [CLOMIPRAMINE]: 179

Data request, read-out GLC, for CN(C)CCN(Cc1cccs1)c1ccccn1
179.8

---

species: Rattus norvegicus; assay: Open TG-GATES - Regimen: Daily Repeat; type: toxicity, organism-based, Sprague-Dawley; design: regimen Daily Repeat, gender Male, age 6 weeks; details: in vivo, po, 1000 mg/kg, […], tissue Plasma, route gavage, dose level High, time 7 day
gamma-GTP overview
The reply should be a number in IU/L, with the unit left off.

Some solved entries appear below for comparison.
* COc1ccc2[nH]c([S+]([O-])Cc3ncc(C)c(OC)c3C)nc2c1 (stereo unspecified) | 2.6
* CCOC(=O)CCC(=O)O[C@H]1[C@H](O[C@@H]2[C@@H](C)[C@H](O[C@H]3C[C@@](C)(OC)[C@@H](O)[C@H](C)O3)[C@@H](C)C(=O)O[C@H](CC)[C@@](C)(O)[C@H](O)[C@@H](C)C(=O)[C@H](C)C[C@@]2(C)O)O[C@H](C)C[C@@H]1N(C)C [ERYTHROMYCIN ETHYLSUCCINATE] | 1.6
* CC(C)OC(=O)C(C)(C)Oc1ccc(C(=O)c2ccc(Cl)cc2)cc1 [FENOFIBRATE] | 1
* NC(N)=Nc1nc(CSCCC(N)=NS(N)(=O)=O)cs1 | 1
* COC1=CC(=O)C[C@@H](C)[C@]12Oc1c(Cl)c(OC)cc(OC)c1C2=O | 1.2

Below: the item to evaluate.
// query gamma-GTP value for entry CCOc1ccc(NC(=O)CC(C)O)cc1 (stereo unspecified)
1

---

organism: Rattus norvegicus; experiment: Open TG-GATES - Regimen: Daily Repeat; format: toxicity, organism-based, Sprague-Dawley; parameters: regimen Daily Repeat, gender Male, age 6 weeks; settings: in vivo, po, 100 mg/kg, […], tissue Blood, route gavage, dose level Low, time 14 day
measured.endpoint: Ret (%)
Answer format: numeric, % implied, no suffix.

• CCOC(=O)CCC(=O)O[C@H]1[C@H](O[C@@H]2[C@@H](C)[C@H](O[C@H]3C[C@@](C)(OC)[C@@H](O)[C@H](C)O3)[C@@H](C)C(=O)O[C@H](CC)[C@@](C)(O)[C@H](O)[C@@H](C)C(=O)[C@H](C)C[C@@]2(C)O)O[C@H](C)C[C@@H]1N(C)C [ERYTHROMYCIN ETHYLSUCCINATE] = 4.7
• COc1ccc2[nH]c([S+]([O-])Cc3ncc(C)c(OC)c3C)nc2c1 (stereo not given) [OMEPRAZOLE] = 4.1
• CCOc1ccc(NC(=O)CC(C)O)cc1 (stereo not given) [BUCETIN] = 4.1
• NC(N)=Nc1nc(CSCCC(N)=NS(N)(=O)=O)cs1 [FAMOTIDINE] = 4

Now let's try a different one.
Fill in: Ret of COC1=CC(=O)C[C@@H](C)[C@]12Oc1c(Cl)c(OC)cc(OC)c1C2=O [GRISEOFULVIN] is ___
2.8

---

organism: Rattus norvegicus; experiment: Open TG-GATES - Regimen: Daily Repeat; type: toxicity, organism-based, Sprague-Dawley; set-up: regimen Daily Repeat, gender Male, age 6 weeks; conditions: in vivo, po, 0 mg/kg, […], tissue Blood, route gavage, dose level Control, time 28 day
Entries and their Bas values follow.
Number only, in %; omit the unit.

As a guide, the following entries are already answered.
- COC1=CC(=O)C[C@@H](C)[C@]12Oc1c(Cl)c(OC)cc(OC)c1C2=O: 0
- CCOC(=O)CCC(=O)O[C@H]1[C@H](O[C@@H]2[C@@H](C)[C@H](O[C@H]3C[C@@](C)(OC)[C@@H](O)[C@H](C)O3)[C@@H](C)C(=O)O[C@H](CC)[C@@](C)(O)[C@H](O)[C@@H](C)C(=O)[C@H](C)C[C@@]2(C)O)O[C@H](C)C[C@@H]1N(C)C [ERYTHROMYCIN ETHYLSUCCINATE]: 0
- CC1=C(/C=C/C(C)=C/C=C/C(C)=C/CO)C(C)(C)CCC1: 0

Fill in the blank: the reported Bas of CCOc1ccc(NC(=O)CC(C)O)cc1 (stereo not drawn) is ____.
0.2

Field request: Bas | item: CCCNC(=O)NS(=O)(=O)c1ccc(Cl)cc1 [CHLORPROPAMIDE]
0.2

Reported Bas for COc1ccc2[nH]c([S+]([O-])Cc3ncc(C)c(OC)c3C)nc2c1 (stereo not drawn) : what is it?
0

Quick one: Bas for CN(C)CCN(Cc1cccs1)c1ccccn1 ?
0

What Bas value was documented for this compound, O=C(CCCN1CCC(O)(c2ccc(Cl)cc2)CC1)c1ccc(F)cc1 ?
0

Look at this compound and give its reported Bas. CN(C)CCCN1c2ccccc2CCc2ccccc21
0

Could you tell me which Bas is on file for CN1C(=O)CN=C(c2ccccc2)c2cc(Cl)ccc21 ?
0

Dear colleague, I am looking for the recorded Bas of the following compound: NC(N)=Nc1nc(CSCCC(N)=NS(N)(=O)=O)cs1
0

Please give the measured Bas for this compound: CC(C)OC(=O)C(C)(C)Oc1ccc(C(=O)c2ccc(Cl)cc2)cc1 [FENOFIBRATE]
0.4

Request the reported Bas associated with NNC(=O)c1ccncc1
0

---

organism: Rattus norvegicus; experiment: Open TG-GATES - Regimen: Single; assay type: toxicity, organism-based, Sprague-Dawley; set-up: regimen Single, gender Male, age 6 weeks; settings: in vivo, po, 1000 mg/kg, 24 h, tissue Plasma, route gavage, dose level High
Quick reference: ALT of the listed items.
For clarity, give the value followed by its unit.

What value of measured ALT is listed for COc1ccc2[nH]c([S+]([O-])Cc3ncc(C)c(OC)c3C)nc2c1 (stereo not given) ?
32.6 IU/L

Dear colleague, I am looking for the recorded ALT of the following compound: CCOC(=O)CCC(=O)O[C@H]1[C@H](O[C@@H]2[C@@H](C)[C@H](O[C@H]3C[C@@](C)(OC)[C@@H](O)[C@H](C)O3)[C@@H](C)C(=O)O[C@H](CC)[C@@](C)(O)[C@H](O)[C@@H](C)C(=O)[C@H](C)C[C@@]2(C)O)O[C@H](C)C[C@@H]1N(C)C [ERYTHROMYCIN ETHYLSUCCINATE]
34 IU/L

Given the compound NC(N)=Nc1nc(CSCCC(N)=NS(N)(=O)=O)cs1 , what is its reported ALT?
39 IU/L

Look up ALT: COC1=CC(=O)C[C@@H](C)[C@]12Oc1c(Cl)c(OC)cc(OC)c1C2=O
39.8 IU/L

Tell me the measured ALT of CC(C)OC(=O)C(C)(C)Oc1ccc(C(=O)c2ccc(Cl)cc2)cc1 [FENOFIBRATE] , please.
53 IU/L

---

species: Rattus norvegicus; assay: Open TG-GATES - Regimen: Daily Repeat; assay type: toxicity, organism-based, Sprague-Dawley; design: regimen Daily Repeat, gender Male, age 6 weeks; conditions: in vivo, po, 0 mg/kg, 72 h, tissue Plasma, route gavage, dose level Control, time 3 day
measured.endpoint: ALT (IU/L)
Write the answer as a number in IU/L, unit excluded.

Please review the entries below; each comes with its answer.
- COC1=CC(=O)C[C@@H](C)[C@]12Oc1c(Cl)c(OC)cc(OC)c1C2=O: 35
- CC(C)OC(=O)C(C)(C)Oc1ccc(C(=O)c2ccc(Cl)cc2)cc1 [FENOFIBRATE]: 44.4
- NNC(=O)c1ccncc1: 33.6
- CN1C(=O)CN=C(c2ccccc2)c2cc(Cl)ccc21: 34.2
- CCOC(=O)CCC(=O)O[C@H]1[C@H](O[C@@H]2[C@@H](C)[C@H](O[C@H]3C[C@@](C)(OC)[C@@H](O)[C@H](C)O3)[C@@H](C)C(=O)O[C@H](CC)[C@@](C)(O)[C@H](O)[C@@H](C)C(=O)[C@H](C)C[C@@]2(C)O)O[C@H](C)C[C@@H]1N(C)C [ERYTHROMYCIN ETHYLSUCCINATE]: 38.2

Data request, read-out ALT, for NC(N)=Nc1nc(CSCCC(N)=NS(N)(=O)=O)cs1
31.4

Fill in: ALT of CCOc1ccc(NC(=O)CC(C)O)cc1 (stereo unspecified) is ___
33.8

Look up ALT for this molecule: CN(C)CCN(Cc1cccs1)c1ccccn1
39.2

Fill in: ALT of CCCNC(=O)NS(=O)(=O)c1ccc(Cl)cc1 [CHLORPROPAMIDE] is ___
48.2

Requested field: ALT. Item: CC1=C(/C=C/C(C)=C/C=C/C(C)=C/CO)C(C)(C)CCC1
49.4

So what does the record say about ALT for O=C(CCCN1CCC(O)(c2ccc(Cl)cc2)CC1)c1ccc(F)cc1 ?
38
